Source listed as the supplement of paper PMC10567573.

B1: C6orf223 (parent)
chain: TLARMSRRTRGPVERAAAAAAAAA

# Variants of: B1
# test: protein stability index of a GFP-peptide fusion (GPS, HEK-293T) (PSI 1-6); higher = more stable;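 note: lentivirally expressed fusions sorted by FACS into six bins by GFP to DsRed ratio, PSI derived from sequencing read proportions per bin multiplied by bin number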
# conditions: c terminus: a fixed tail appended
measured-quantity: protein stability index
# print the numeric value only

[
  {
    "residue-string": "TLARMSRRTRGPVERAAAAAAACA",
    "protein stability index": 3.99
  },
  {
    "residue-string": "TEARMSRRTRGPVERAAAAAAAAA",
    "protein stability index": 4.7
  },
  {
    "residue-string": "TLARMSRRTRGPVERAAYAAAAAA",
    "protein stability index": 2.13
  },
  {
    "residue-string": "TLARMSRRTRGPVERAAPAAAAAA",
    "protein stability index": 4.09
  },
  {
    "residue-string": "TLARMSRRTRGPVERAAAAAAAIA",
    "protein stability index": 3.49
  },
  {
    "residue-string": "TLARMSRRTRGPVERAAAAAAAYA",
    "protein stability index": 3.26
  }
]

Data request: Name the recorded protein stability index for TLARMSRRTRGPVERAAAAAAALA .
Data returned: 3.09

Data request: Then TLARMSRRTRGPVERATAAAAAAA ?
Data returned: 3.76

Data request: Then TLARMSRRTRGPVERAAAAAAKAA ?
Data returned: 1.97

Data request: Then TLARMSRRTRGPVERAAAAAATAA ?
Data returned: 3.2

Data request: Then TLARMSRRTRGPVERAAAAAANAA ?
Data returned: 3.38
